Test system: pig pancreas alpha-amylase
method: Degradation by pig pancreas alpha-amylase
Assay type: biochemical
particulars: pH6.9, 37° C., 18 hours
Catalogue of G3 (maltotriose) in degradation product by alpha-amylase readings, one per entry.
metric: G3 (maltotriose) in degradation product by alpha-amylase (%)

compound="OC[C@H]1O[C@H](O[C@H]2O[C@H](CO)[C@@H](O[C@H]3O[C@H](CO)[C@@H](O[C@H]4O[C@H](CO)[C@@H](O)[C@H](O)[C@H]4O)[C@H](O)[C@H]3O)[C@H](O)[C@H]2O)[C@H](O)[C@@H](O)[C@@H]1O [PII, alpha-maltosyl trehalose]" obs_value=0.4
compound="OC[C@H]1O[C@H](O[C@H]2O[C@H](CO)[C@@H](O[C@H]3O[C@H](CO)[C@@H](O)[C@H](O)[C@H]3O)[C@H](O)[C@H]2O)[C@H](O)[C@@H](O)[C@@H]1O [PI, alpha-glucosyl trehalose]" obs_value=2.3
compound="OC[C@H]1O[C@H](O[C@H]2O[C@H](CO)[C@@H](O[C@H]3O[C@H](CO)[C@@H](O[C@H]4O[C@H](CO)[C@@H](O[C@H]5O[C@H](CO)[C@@H](O)[C@H](O)[C@H]5O)[C@H](O)[C@H]4O)[C@H](O)[C@H]3O)[C@H](O)[C@H]2O)[C@H](O)[C@@H](O)[C@@H]1O [PIII, alpha-maltotriosyl trehalose]" obs_value=0
compound="OC[C@H]1O[C@H](O[C@H]2O[C@H](CO)[C@@H](O[C@H]3O[C@H](CO)[C@@H](O[C@H]4O[C@H](CO)[C@@H](O[C@H]5O[C@H](CO)[C@@H](O[C@H]6O[C@H](CO)[C@@H](O[C@H]7O[C@H](CO)[C@@H](O)[C@H](O)[C@H]7O)[C@H](O)[C@H]6O)[C@H](O)[C@H]5O)[C@H](O)[C@H]4O)[C@H](O)[C@H]3O)[C@H](O)[C@H]2O)[C@H](O)[C@@H](O)[C@@H]1O [PV, alpha-maltopentaosyl trehalose]" obs_value=35.3
compound="OC[C@H]1O[C@H](O[C@H]2O[C@H](CO)[C@@H](O[C@H]3O[C@H](CO)[C@@H](O[C@H]4O[C@H](CO)[C@@H](O[C@H]5O[C@H](CO)[C@@H](O[C@H]6O[C@H](CO)[C@@H](O)[C@H](O)[C@H]6O)[C@H](O)[C@H]5O)[C@H](O)[C@H]4O)[C@H](O)[C@H]3O)[C@H](O)[C@H]2O)[C@H](O)[C@@H](O)[C@@H]1O [PIV, alpha-maltotetraosyl trehalose]" obs_value=40.4
